assay remarks: Caspase-3/7 induction in CHO-K1 cells by small molecules, qHTS cell viability counter screen (AID 1346979); also: nearly all actives have a fitted effect of over 35% in size
condition context: CellTiter-Fluor fluorescence, 17 h; series mostly up to 92.4 µM
Results filed as inconclusive are left out. Activity calls are given as the source filed them. Calls follow the shape of the dose curve; as a rule, active = well fitted cell-killing curve with a large enough effect in the repeat runs; inconclusive = weak or mixed curves, or effect the other way; inactive = no such curve, though single readings can be large or run the other way.
Classes to choose from: Yes = active, No = inactive

molecule=CC(=O)c1ccccc1N label=No
molecule="C=CC(C)(CCC=C(C)C)OC(=O)/C=C/c1ccccc1 (stereo unspecified)" label=No
molecule="COc1cccc(CCc2ccccc2OCC(CN(C)C)OC(=O)CCC(=O)O)c1 (stereo unspecified)" label=No

QUERY: Field: outcome | Entry: CCc1cccc(CC)c1NC(=O)C(=O)O
RESULT: No

QUERY: Field: outcome | Entry: CC(=O)Oc1ccc(C2(c3ccc(OC(C)=O)cc3)C(=O)Nc3ccccc32)cc1
RESULT: No

QUERY: Field: outcome | Entry: CCOC(OCC)C(=O)c1ccccc1
RESULT: No

QUERY: Field: outcome | Entry: C(=C/c1ccccc1)/c1ccccc1
RESULT: No

QUERY: Field: outcome | Entry: CN(C)c1ccc(N=Nc2ccccc2C(=O)O)cc1
RESULT: Yes

QUERY: Field: outcome | Entry: CCCCCCCC/C=C\CCCCCCCC(=O)OCCOC(=O)CCCCCCC/C=C\CCCCCCCC
RESULT: No

QUERY: Field: outcome | Entry: C=CC(C)C#N (stereo unspecified)
RESULT: No

QUERY: Field: outcome | Entry: C=C(c1ccc(C(=O)O)cc1)c1cc2c(cc1C)C(C)(C)CCC2(C)C
RESULT: Yes

QUERY: Field: outcome | Entry: CN(Cc1cc(Br)cc(Br)c1N)C1CCCCC1
RESULT: No

QUERY: Field: outcome | Entry: Cn1cccc1
RESULT: No

QUERY: Field: outcome | Entry: CCC(C)c1ccccc1 (stereo unspecified)
RESULT: No

QUERY: Field: outcome | Entry: COC(=O)CC#N
RESULT: No
